# MEASURED_ON: CDC42BPA (human) (UniProt Q5VT25)
# Sequence (Q5VT25 whole entry, looked up): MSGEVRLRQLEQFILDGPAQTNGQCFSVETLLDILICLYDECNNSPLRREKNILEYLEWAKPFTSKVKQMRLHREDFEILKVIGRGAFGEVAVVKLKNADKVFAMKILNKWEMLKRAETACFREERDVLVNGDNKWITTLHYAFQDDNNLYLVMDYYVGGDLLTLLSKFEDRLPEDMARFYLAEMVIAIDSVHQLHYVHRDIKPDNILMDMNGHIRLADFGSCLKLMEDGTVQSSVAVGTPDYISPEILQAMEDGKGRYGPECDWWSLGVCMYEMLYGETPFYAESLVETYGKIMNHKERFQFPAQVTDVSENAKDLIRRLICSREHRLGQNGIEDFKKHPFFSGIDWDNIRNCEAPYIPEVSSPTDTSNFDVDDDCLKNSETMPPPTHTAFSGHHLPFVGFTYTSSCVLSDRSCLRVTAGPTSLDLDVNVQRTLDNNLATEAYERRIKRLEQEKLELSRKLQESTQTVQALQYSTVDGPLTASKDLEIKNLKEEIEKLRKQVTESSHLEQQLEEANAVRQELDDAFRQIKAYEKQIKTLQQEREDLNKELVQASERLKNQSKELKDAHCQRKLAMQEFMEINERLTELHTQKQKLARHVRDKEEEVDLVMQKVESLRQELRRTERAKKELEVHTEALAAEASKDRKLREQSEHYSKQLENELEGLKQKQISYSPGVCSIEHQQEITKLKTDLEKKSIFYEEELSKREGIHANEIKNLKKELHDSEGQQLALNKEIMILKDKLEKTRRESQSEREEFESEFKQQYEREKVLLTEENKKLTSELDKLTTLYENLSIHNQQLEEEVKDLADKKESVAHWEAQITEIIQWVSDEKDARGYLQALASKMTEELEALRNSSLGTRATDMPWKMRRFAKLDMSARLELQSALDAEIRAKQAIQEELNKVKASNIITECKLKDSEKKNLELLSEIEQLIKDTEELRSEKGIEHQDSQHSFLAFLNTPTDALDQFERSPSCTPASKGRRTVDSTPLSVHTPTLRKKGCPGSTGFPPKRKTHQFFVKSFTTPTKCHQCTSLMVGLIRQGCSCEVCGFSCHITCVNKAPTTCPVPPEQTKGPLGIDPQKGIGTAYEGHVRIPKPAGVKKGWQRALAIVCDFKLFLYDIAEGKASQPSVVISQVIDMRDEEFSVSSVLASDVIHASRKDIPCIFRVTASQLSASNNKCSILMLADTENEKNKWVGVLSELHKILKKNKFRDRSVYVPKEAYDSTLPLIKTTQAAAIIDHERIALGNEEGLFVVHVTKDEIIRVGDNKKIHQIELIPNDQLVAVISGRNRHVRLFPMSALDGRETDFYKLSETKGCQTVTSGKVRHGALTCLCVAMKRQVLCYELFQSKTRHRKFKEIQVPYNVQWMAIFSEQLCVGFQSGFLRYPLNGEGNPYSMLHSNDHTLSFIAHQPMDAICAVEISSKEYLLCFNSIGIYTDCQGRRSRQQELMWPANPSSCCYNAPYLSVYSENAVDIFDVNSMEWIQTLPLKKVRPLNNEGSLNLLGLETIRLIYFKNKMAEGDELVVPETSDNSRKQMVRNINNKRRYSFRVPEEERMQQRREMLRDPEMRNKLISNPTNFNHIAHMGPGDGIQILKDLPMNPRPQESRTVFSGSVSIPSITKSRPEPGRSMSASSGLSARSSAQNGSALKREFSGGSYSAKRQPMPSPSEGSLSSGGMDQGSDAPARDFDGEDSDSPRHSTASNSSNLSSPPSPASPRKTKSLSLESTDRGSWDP
# ASSAY_OVERVIEW: KINOMEscan competition binding
# CONDITION_SUMMARY: compound 10.0 µM
Hi there, I'd appreciate the recorded kinase still bound, per cent of control for every entry that follows.
Give bare numbers, in %.

Previously resolved entries follow.
molecule=CCCS(=O)(=O)Nc1ccc(F)c(C(=O)c2c[nH]c3ncc(Cl)cc23)c1F quantitative_readout=96
molecule=COc1ccc(N(C(=O)Oc2cc(C(=O)Nc3cccc(C(F)(F)F)c3)ccc2C)c2ccnc(Nc3ccc(N4CCN(C)CC4)cc3)n2)c(OC)c1 quantitative_readout=100
molecule=N#Cc1cc(-c2ccnc(Nc3ccc(-n4cnc(-c5cccnc5)n4)cc3)n2)cc(N2CCOCC2)c1 quantitative_readout=68

Provide each entry's kinase still bound, per cent of control from the list below.
1. CCN1CCN(Cc2ccc(NC(=O)c3ccc(C)c(/C=C/c4cnc5[nH]ccc5c4OC)c3)cc2C(F)(F)F)CC1
2. Cc1cn(-c2cc(C(=O)Nc3ccc(C)c(NC(=O)c4ccno4)c3)cc(C(F)(F)F)c2)cn1

A.
15
100
